Biological target: Wee1 kinase domain (Homo sapiens, UniProt P30291)
Construct: Wee1 kinase domain was purchased from Carna (catalog #05-177); purchased Carna 05-177
Sequence (P30291 299-569 limits assumed): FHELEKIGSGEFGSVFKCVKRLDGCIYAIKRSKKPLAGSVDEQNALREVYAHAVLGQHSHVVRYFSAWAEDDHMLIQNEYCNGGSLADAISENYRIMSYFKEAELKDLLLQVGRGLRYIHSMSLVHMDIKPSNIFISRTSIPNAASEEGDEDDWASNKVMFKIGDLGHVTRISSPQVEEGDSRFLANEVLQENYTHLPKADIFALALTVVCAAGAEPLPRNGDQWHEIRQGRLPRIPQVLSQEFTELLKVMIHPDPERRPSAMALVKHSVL
Test: Wee1 Kinase Biochemical Assay (ADP-Glo)
Settings: class symbols; 1 nM Wee1 enzyme, 15 uM ATP, 4 hours at 25° C.
Endpoint Label: IC50

>  <Compound>
CN1CC[C@H]2CN(c3ccc(Nc4ncc5c(n4)N(c4cccc(N6CCCC6=O)n4)[C@@H]4CC(C)(C)OC[C@]54C)cc3)C[C@H]21

>  <Target Desc>
Wee1 kinase domain (Homo sapiens, UniProt P30291)

>  <Value Reported>
< 10 nM

$$$$
>  <Compound>
CN1CCN(c2ccc(Nc3ncc4c(n3)N(c3cccc(N5C(=O)CCC5(C)C)n3)[C@@H]3CC(C)(C)OC[C@]43C)cc2)CC1 (single isomer, unassigned)

>  <Target Desc>
Wee1 kinase domain (Homo sapiens, UniProt P30291)

>  <Value Reported>
< 10 nM

$$$$
>  <Compound>
CNCc1cccc(N2c3nc(Nc4ccc(C(C)(C)C(=O)O)cc4)ncc3[C@@]3(C)COC(C)(C)C[C@@H]23)n1 (single isomer, unassigned)

>  <Target Desc>
Wee1 kinase domain (Homo sapiens, UniProt P30291)

>  <Value Reported>
< 10 nM

$$$$

Req: State the recorded IC50 for this entry: CN1CC[C@H](c2ccc(Nc3ncc4c(n3)N(c3cccc(N5CCOC5=O)n3)[C@H]3CC(C)(C)OC[C@@]43C)cc2)C1 (single isomer, unassigned)
Resp: 10 to 100 nM

Req: State the recorded IC50 for this entry: CN1CCC(n2ccc(Nc3ncc4c(n3)N(c3ccccn3)[C@@H]3CC(C)(C)OC[C@]43C)cc2=O)CC1 (single isomer, unassigned)
Resp: < 10 nM
